system: UACC-257 melanoma; assay: NCI tumour cell line growth inhibition, 48 h
TGI listing for selected molecules.

{"columns": ["MOLECULE", "STUDY TARGET", "TGI"],
 "data": [
  ["COC(=O)C1=C(C)NC2(O)C=CC(=O)C3C(=O)N(c4ccccc4)C(=O)C132 (stereo not drawn)", "UACC-257 melanoma", "> 100 µM"],
  ["CCOC(=O)c1[nH]c(-c2ccc(Cl)cc2)cc1-c1cccnc1", "UACC-257 melanoma", "> 100 µM"],
  ["O=C1CC(=O)c2c(O)cc(O)c(c2O)-c2c(ccc(O)c2O)C2=CC(=O)c3c(O)cc(O)c(c3O2)-c2c1ccc(O)c2O (tested in a mixture with another compound)", "UACC-257 melanoma", "> 50 µM"],
  ["C[C@]1(CO)[C@H]2CC[C@@]34C=C[C@@](CO)(CC[C@H]3[C@]2(C)CC[C@H]1O)C4", "UACC-257 melanoma", "> 100 µM"],
  ["CC(C)c1ccc(C(=O)Nc2sc3c(c2C#N)CCC(=O)C3)cc1", "UACC-257 melanoma", "6.05 µM"],
  ["Nc1ccc(S(=O)(=O)C23CC4CC(CC(C4)C2)C3)cc1", "UACC-257 melanoma", "> 100 µM"],
  ["COc1ccc(N2C(=Nc3ccccc3)SC(=N/S(=O)(=O)c3ccccc3)/C2=N\\S(=O)(=O)c2ccccc2)cc1", "UACC-257 melanoma", "73.1 µM"],
  ["N#Cc1cnc2cc(OC[C@@H](O)CO)c(NC(=O)CC3CSSC3)cc2c1Nc1ccc(OCc2cccc(F)c2)c(Cl)c1", "UACC-257 melanoma", "0.829 µM"]
]}

###

system: SNB-75 CNS; assay: NCI tumour cell line growth inhibition, 48 h
Measured TGI, listed per entry.
READOUT: TGI (µM)

{"columns": ["COMPOUND", "BOUND SIGN", "NUMERIC READOUT"],
 "data": [
  ["COc1cc2c3c(n(CCCNCCN)c(=O)c2cc1OC)-c1cc2c(cc1C3=O)OCO2", "=", 21.5],
  ["Clc1ccc2sc(-n3ccc4ccccc43)nc2c1", ">", 100],
  ["COc1cc(/C=C\\[N+](=O)[O-])ccc1OCc1ccccc1", "=", 6.79],
  ["CCCCCC(=O)N[C@@H](c1ccccc1)C(O)C(=O)OC1C[C@@]2(O)C(OC(=O)c3ccccc3)C3[C@](C)(C(=O)[C@H](O)C(=C1C)C2(C)C)C(OC1OCC(O)C(O)C1O)C[C@H]1OC[C@@]31OC(C)=O (some centres undefined)", "=", 4.52],
  ["Cc1c(C(=O)NCCO)[n+](=O)c2cc(Cl)ccc2n1[O-]", ">", 100],
  ["CC1(C)[C@@H](Cn2cnc3c(N)ncnc32)CC[C@@]1(C)CO", ">", 100],
  ["Cc1c2c(cc3c1[nH]c1ccccc13)C=NCC2", "=", 39.5],
  ["C#CC1(O)C(COP(=O)(O)OC2CC(n3cc(F)c(=O)[nH]c3=O)OC2CO)OC(n2ccc(N)nc2=O)C1O (centres undefined)", "=", 1.18],
  ["CC(C)C(C/C=C1\\CC(CO)(COC(=O)c2ccccc2)OC1=O)C(C)C (centres undefined)", "=", 29.1],
  ["O=C(Nc1ccc(Cl)cc1)c1ccc(NC2=C(Cl)C(=O)N(Cc3ccccc3)C2=O)cc1", "=", 52.5],
  ["COc1cccc(NC(=O)CC(=O)N2N=C(N(CCC#N)c3ccccc3C)CC2c2ccccc2)c1 (centres undefined)", ">", 100],
  ["C=C=C(CC)C(C(=O)OC)N(CC)CC (centres undefined)", ">", 100],
  ["COc1ccc2cc1Oc1ccc(cc1)C(Sc1ccccc1)CCOC(=O)CC2 (centres undefined)", ">", 100],
  ["CCOC(=O)N1CCN(c2ccc3c(C)cc(C)nc3n2)CC1", ">", 100],
  ["CC(=O)O[C@H]1CC[C@@]2(C)C(=CC[C@H]3[C@@H]4C/C(=C\\c5cccc(OCCN6CCOCC6)c5)[C@H](OC(C)=O)[C@@]4(C)CC[C@@H]32)C1", "=", 22.8],
  ["O=c1nc(Nc2cccc(Cl)c2)oc2cc(Cl)oc(=O)c12", "=", 21.4],
  ["Cn1c(=O)c2c(nc3n(Cc4ccccc4)c(=O)c(NCCBr)cn23)n(C)c1=O", "=", 49.8],
  ["O=c1c(SSc2coc3cc(F)ccc3c2=O)coc2cc(F)ccc12", "=", 33.6],
  ["CC(C)=CC(=O)O[C@H]1C(=O)O[C@@H]2C[C@H]3[C@H](C)C(=O)C(O[C@@H]4O[C@H](CO)[C@@H](O)[C@H](O)[C@H]4O)=C[C@]3(C)[C@H]3[C@@H](O)[C@H](O)[C@]4(C(=O)O)OC[C@]32[C@@H]14", ">", 100],
  ["O=c1cc2ccccc2nn1Cc1ccccc1Cl", "=", 93.8],
  ["Nc1nc2c(c(=O)[nH]1)N(C=O)C(CNc1ccc(C(=O)N[C@@H](CCC(=O)O)C(=O)O)cc1)CN2 (some centres undefined)", ">", 125],
  ["NNc1cccc(/C=C/c2ccccc2)cc1=O", ">", 100],
  ["COc1ccc2c(c1OC)C1=C(C2=O)c2cc3c(cc2CCN1)OCO3", "=", 5.9],
  ["COCC(=O)CP(=O)(OC)OC", ">", 100],
  ["C=CCOc1ccccc1N=N/C(C#N)=N\\Nc1ccccc1OCC=C", ">", 100],
  ["C[C@]1(CO)[C@H]2CC[C@@]34C=C[C@@](CO)(CC[C@H]3[C@]2(C)CC[C@H]1O)C4", ">", 100],
  ["O=C(/C=C/c1cccc(Br)c1)c1cccs1", "=", 28.2],
  ["O=C1C(NCCc2ccc(O)c(O)c2)=CC(=O)c2ncccc21", "=", 29.4],
  ["CC(C)[C@@H]1CC[C@@H](C)C[C@H]1OC(=O)/C=C1/C2C=CC(O2)C1C(=O)O[C@@H]1C[C@H](C)CC[C@H]1C(C)C (some centres undefined)", ">", 100],
  ["CC(C)c1ccc(/C(C(=O)O)=C(\\O)C(=O)O)cc1", ">", 100],
  ["CC(C(=O)ON1C(=O)CCC1=O)c1ccc(C(=O)c2ccccc2)s1 (centres undefined)", ">", 100],
  ["Cc1ccc(S(=O)(=O)/N=C(\\NN)Nc2ccc(Cl)cc2)cc1", ">", 100],
  ["CCC1C(c2cccc(OC)c2O)c2cc3c(cc2OC1N1CCCC1)OCO3 (centres undefined)", "=", 92.4],
  ["COc1cc(OC)c(OC)cc1/C=C\\c1nccc2ccccc12", "=", 50.6],
  ["O=C1CSC(/C(=C\\c2ccc(Cl)cc2)c2nc3ccccc3[nH]2)=N1", "=", 28.8],
  ["CC[C@@]1(O)C(=O)NCc2c1cc1n(c2=O)Cc2cc3c(N)cccc3nc2-1", ">", 18.3],
  ["Cc1nc2sc(C(=O)Nc3cccc4ccccc34)c(N)c2cc1C(=O)c1ccccc1", ">", 50],
  ["CC(=O)OC1CC2C(C)(C)C(=O)C=C[C@]2(C)C2CCC3(C)C(c4ccoc4)C(=O)[C@H]4O[C@]43[C@]12C (some centres undefined)", ">", 100],
  ["CCCCCCCCCCN(CCCCCCCCCC)CC(=O)c1ccc2cc(Br)c3ccccc3c2c1", "=", 5.45]
]}

###

test system: SNB-78 CNS; assay: NCI tumour cell line growth inhibition, 48 h

{"columns": ["COMPOUND", "STUDY TARGET", "TGI"],
 "data": [
  ["O=c1cc2ccccc2nn1Cc1ccccc1Cl", "SNB-78 CNS", "> 100 µM"],
  ["COCC(=O)CP(=O)(OC)OC", "SNB-78 CNS", "> 100 µM"],
  ["Cc1ccc(S(=O)(=O)NC(=O)NC23CC4CC(CC(F)(C4)C2)C3)cc1", "SNB-78 CNS", "> 100 µM"],
  ["CCCCCCCCCCCCCCCCSCC(COC)COP(=O)([O-])OCC[N+](C)(C)C (stereo unspecified)", "SNB-78 CNS", "26.1 µM"],
  ["Cc1nc2c(n1C(C)(C)C)C(=O)c1ccccc1C2=O", "SNB-78 CNS", "> 100 µM"],
  ["CCOc1ccc(/C=C(\\Cl)c2ccc(OC)c(OC)c2)cc1", "SNB-78 CNS", "> 100 µM"]
]}

###

system: NCI-H522 lung
Outcome codes: TRUE for active, FALSE for inactive

{"columns": ["COMPOUND", "LABEL CLASS"],
 "data": [
  ["CC(C)c1ccc(C(=O)Nc2sc3c(c2C#N)CCC(=O)C3)cc1", "TRUE"],
  ["COc1cc(/C=C2\\CC3C4CC=C5C[C@@H](OC(C)=O)CC[C@]5(C)C4CC[C@]3(C)C2=O)ccc1OCCCn1ccnc1 (stereo not given in full)", "FALSE"],
  ["COc1cc2c3c(n(CCCNCCN)c(=O)c2cc1OC)-c1cc2c(cc1C3=O)OCO2", "TRUE"],
  ["O=C(Nc1ccc(Cl)cc1)c1ccc(NC2=C(Cl)C(=O)N(Cc3ccccc3)C2=O)cc1", "FALSE"],
  ["CCOC(=O)c1c(Br)c(-c2ccc(Br)cc2)c(Br)n1C", "FALSE"]
]}
